system: T1, human TGFβ1 (human, UniProt P01137 279-390)
T1 construct: also called TGFβ1 homodimer
T1 sequence (P01137 279-390 limits assumed): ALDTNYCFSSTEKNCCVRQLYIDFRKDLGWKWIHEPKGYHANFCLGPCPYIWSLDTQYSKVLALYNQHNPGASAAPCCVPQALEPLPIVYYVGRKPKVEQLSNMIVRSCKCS
assayMethodText: Biacore off-rate vs wt GC1008, 50 nM
Measured kd var/kd wt values are reported for all entries that follow.
Kindly provide the number alone.

Worked set:
binder="E74R (antibody, V domains shown, GC1008 IgG4 variant) VH: QVQLVQSGAEVKKPGSSVKVSCKASGYTFSSNVISWVRQAPGQGLEWMGGVIPIVDIANYAQRFKGRVTITADRSTSTTYMELSSLRSEDTAVYYCASTLGLVLDAMDYWGQGTLVTVSS VL: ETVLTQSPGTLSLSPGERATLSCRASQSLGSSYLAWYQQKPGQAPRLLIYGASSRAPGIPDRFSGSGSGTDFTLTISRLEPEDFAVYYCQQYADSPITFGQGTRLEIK" observedmeasurement=2
binder="Y27Q (antibody, V domains shown, GC1008 IgG4 variant) VH: QVQLVQSGAEVKKPGSSVKVSCKASGQTFSSNVISWVRQAPGQGLEWMGGVIPIVDIANYAQRFKGRVTITADESTSTTYMELSSLRSEDTAVYYCASTLGLVLDAMDYWGQGTLVTVSS VL: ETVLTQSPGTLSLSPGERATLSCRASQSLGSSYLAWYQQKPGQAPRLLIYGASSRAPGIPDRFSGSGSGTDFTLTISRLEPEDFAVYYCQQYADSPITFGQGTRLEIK" observedmeasurement=1.5
binder="E74G (antibody, V domains shown, GC1008 IgG4 variant) VH: QVQLVQSGAEVKKPGSSVKVSCKASGYTFSSNVISWVRQAPGQGLEWMGGVIPIVDIANYAQRFKGRVTITADGSTSTTYMELSSLRSEDTAVYYCASTLGLVLDAMDYWGQGTLVTVSS VL: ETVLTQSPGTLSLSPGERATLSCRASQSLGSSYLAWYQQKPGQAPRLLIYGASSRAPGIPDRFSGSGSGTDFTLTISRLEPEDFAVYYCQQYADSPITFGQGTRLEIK" observedmeasurement=1

Okay, next one:
stdin: Consider the binder shown here: Y27A (antibody, V domains shown, GC1008 IgG4 variant) VH: QVQLVQSGAEVKKPGSSVKVSCKASGATFSSNVISWVRQAPGQGLEWMGGVIPIVDIANYAQRFKGRVTITADESTSTTYMELSSLRSEDTAVYYCASTLGLVLDAMDYWGQGTLVTVSS VL: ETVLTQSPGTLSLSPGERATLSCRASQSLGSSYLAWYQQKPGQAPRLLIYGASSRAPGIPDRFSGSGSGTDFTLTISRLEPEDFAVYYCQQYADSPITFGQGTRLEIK What is its recorded kd var/kd wt?
stdout: 1.6
